- Tested on: SK-MEL-2 melanoma
- test method notes: NCI tumour cell line growth inhibition, 48 h
For each entry below, report its GI50 value.

Reference set, count: 6
[[record]]
molecule = "C=CC(=O)Nc1cc2c(Nc3ccc(F)c(Cl)c3)ncnc2cc1C#CC(C)(C)N1CCN(C)CC1"
observed = "2980 nM"

[[record]]
molecule = "CN(C)c1ccc(C(O)C2=CC(=O)c3ccccc3C2=O)cc1 (configuration not stated)"
observed = "2880 nM"

[[record]]
molecule = "COc1cc2cc(Oc3cccc(NC(=O)Nc4cc(C(F)(F)F)cc(C(F)(F)F)c4)c3)c(C)nc2cc1OC"
observed = "1820 nM"

[[record]]
molecule = "COc1cc(-c2nn(-c3cccc(NC(=O)CCNc4ccc(N5CCOCC5)cc4)c3)cc2-c2ccncc2)ccc1Cl"
observed = "2070 nM"

[[record]]
molecule = "COc1ccc2c(c1OC)O/C(=C\\c1ncc([N+](=O)[O-])n1C)C2=O"
observed = "681 nM"

[[record]]
molecule = "COc1ccc2c(c1)C(=O)c1c-2c(OCCN(C)C)nc2cc(OC)c(OC)cc12"
observed = "> 100000 nM"


Next item in the queue.
Kindly note the recorded GI50 for Nn1c(-c2ccc(Cl)cc2)nc2c(-c3ccc(Cl)cc3)nc3ccc(Cl)cc3c2c1=O , which is 25200 nM

Where these numbers come from: PubChem BioAssay (NCI)
